Would you kindly list LPS % cell toxicity for each of these molecules?
System: primary rat microglia
Assay: Cell toxicity (dead cells, size <150 μm2) in LPS assay
Settings: primary microglia HTS, LPS stimulation; decreased size (<150 μm^2) as marker of toxicity
One number for each entry, in %.

Look over these answered cases.
molecule	LPS % cell toxicity / %
CN(C)CC/C=C1/c2ccccc2COc2ccc(CC(=O)O)cc21	0
COc1nc(N)nc2c1ncn2[C@@H]1O[C@H](CO)[C@@H](O)[C@@H]1O	0
NS(=O)(=O)c1cc(C2(O)NC(=O)c3ccccc32)ccc1Cl (stereo not shown) [Chlorthalidone, reference compound]	1

Hello, I would appreciate it if you could give LPS % cell toxicity for each entry below.
1. CC(=O)OCC(=O)[C@@]12N=C(C)O[C@@H]1C[C@H]1[C@@H]3CCC4=CC(=O)C=C[C@]4(C)[C@H]3[C@@H](O)C[C@@]12C [Deflazacort, reference compound]
2. Oc1ccc(OCc2ccccc2)cc1
3. O=C(OC[C@H]1O[C@@H](OC(=O)c2cc(O)c(O)c(OC(=O)c3cc(O)c(O)c(O)c3)c2)[C@H](OC(=O)c2cc(O)c(O)c(OC(=O)c3cc(O)c(O)c(O)c3)c2)[C@@H](OC(=O)c2cc(O)c(O)c(OC(=O)c3cc(O)c(O)c(O)c3)c2)[C@@H]1OC(=O)c1cc(O)c(O)c(OC(=O)c2cc(O)c(O)c(O)c2)c1)c1cc(O)c(O)c(OC(=O)c2cc(O)c(O)c(O)c2)c1 [Tannic acid, reference compound]
4. CCN(CCCCOC(=O)c1ccc(OC)c(OC)c1)C(C)Cc1ccc(OC)cc1 (stereo not shown)

Result:
[4, 0, 1, 0]

---

Tested on: LPS-induced microglia activation
Test: Image-based assay of LPS-induced microglia activation (HTS and dose response)
Format: cell-based, rat
Settings: Rattus norvegicus, Microglia, 48 h, primary microglia HTS, LPS stimulation; increased cell size (>800 μm^2) as marker of activation; read-out: LPS % inhibition
Structures can show the parent of a compound that is named as a salt.
Outcome label depends on inhibition at 10 µM relative to 20%: at/above gives 1, below gives 0.

Worked cases, answers included:
compound	class-name
COC(=O)Nc1nc2ccc(C(=O)c3ccccc3)cc2[nH]1 [Mebendazole, reference compound]	1
Cc1cccc(C)c1NC(=O)c1ccccc1C(=O)O [Ftaxilide, reference compound]	1
CCCCN1C[C@H](O)[C@@H](O)[C@H](O)[C@H]1CO	0
C[C@H]1O[C@@H](O[C@H]2CC[C@@]3(C)[C@H](CC[C@@H]4[C@@H]3C[C@@H](O)[C@]3(C)[C@@H](C5=CC(=O)OC5)CC[C@]43O)C2)C[C@H](O)[C@@H]1O[C@H]1C[C@H](O)[C@H](O[C@H]2C[C@H](O)[C@H](O[C@@H]3O[C@H](CO)[C@@H](O)[C@H](O)[C@H]3O)[C@@H](C)O2)[C@@H](C)O1 [Deslanoside]	1
CC(=O)[C@H]1CC[C@H]2[C@@H]3C[C@H](C)C4=CC(=O)CC[C@]4(C)[C@H]3[C@@H](O)C[C@]12C	1
CC(=O)OCC(=O)[C@@]1(O)CC[C@H]2[C@@H]3CCC4=CC(=O)C=C[C@]4(C)[C@@]3(Cl)[C@@H](Cl)C[C@@]21C [Dichlorisone acetate, reference compound]	1

Ask: Check the entry O=C(O)c1cc(=O)[nH]c(=O)[nH]1 : does inhibition at 10 µM equal or exceed 20%?
Result: 0

Ask: Check the entry CC1=C(/C=C/C(C)=C/C=C/C(C)=C\C(=O)O)C(C)(C)CCC1 : does inhibition at 10 µM equal or exceed 20%?
Result: 1

Ask: Check the entry O=c1[nH]cc(F)c(=O)[nH]1 [Fluorouracil, reference compound] : does inhibition at 10 µM equal or exceed 20%?
Result: 1

Ask: Check the entry O=[N+]([O-])OCC(CO[N+](=O)[O-])O[N+](=O)[O-] : does inhibition at 10 µM equal or exceed 20%?
Result: 0

Ask: Check the entry CCOC(=O)C1=C(COCCN)NC(C)=C(C(=O)OC)C1c1ccccc1Cl (stereo not drawn) : does inhibition at 10 µM equal or exceed 20%?
Result: 1

Ask: Check the entry CCN(CC)CCOC(=O)C(Cc1cccc2ccccc12)CC1CCCO1 (stereo not drawn) [Nafronyl Oxalate] : does inhibition at 10 µM equal or exceed 20%?
Result: 0

Ask: Check the entry O=C(O)c1ccc[n+]([O-])c1 : does inhibition at 10 µM equal or exceed 20%?
Result: 0

Ask: Check the entry CN(C)CCOC(=O)COc1ccc(Cl)cc1 [Meclofenoxate] : does inhibition at 10 µM equal or exceed 20%?
Result: 1

Ask: Check the entry CC1CCc2c(N3CCC(O)CC3)c(F)cc3c(=O)c(C(=O)O)cn1c23 (stereo not drawn) : does inhibition at 10 µM equal or exceed 20%?
Result: 0
